Assign T1/2 to each entry below.
test details: Fatigue life of film of fulgimide compound obtained in Example 1 with ultraviolet stabilizer, Example 11
Format: physicochemical
test context: fulgimide compound obtained in Example 1 (0.2 part) with 0.2 part ultraviolet stabilizer in poly(methyl methacrylate) film; xenon fadeometer
Give bare numbers, in h.

Answered cases to consult:
{"smi": "CCCCC(Cc1cc(C(C)(C)C)c(O)c(C(C)(C)C)c1)(C(=O)OC1CC(C)(C)N(C)C(C)(C)C1)C(=O)OC1CC(C)(C)N(C)C(C)(C)C1", "T1/2, h": 152}
{"smi": "CC(C)(C)CC(C)(C)c1ccc([O-])c(Sc2cc(C(C)(C)CC(C)(C)C)ccc2[O-])c1.CCCCN.[Ni+2]", "T1/2, h": 152}
{"smi": "CN1C(C)(C)CC(OC(=O)CCCCCCCCC(=O)OC2CC(C)(C)N(C)C(C)(C)C2)CC1(C)C", "T1/2, h": 159}
{"smi": "CCOP(=O)([O-])Cc1cc(C(C)(C)C)c(O)c(C(C)(C)C)c1.CCOP(=O)([O-])Cc1cc(C(C)(C)C)c(O)c(C(C)(C)C)c1.[Ni+2]", "T1/2, h": 147}

Please turn your attention to the following entry.
*Q* Value lookup for T1/2; key = `CCCCN(CCCC)C(=S)[S-].CCCCN(CCCC)C(=S)[S-].[Ni+2]`
*A* 158

====

Assign T1/2 (fatigue life) to each entry below.
test details: Xenon long-life fadeometer test of photochromic poly(methyl methacrylate) cast film (initial coloration density, T1/2, λmax), Example 9
Format: physicochemical
test context: poly(methyl methacrylate) cast film 0.1 mm; time for color density to decrease to half of initial value; xenon fadeometer
Please make sure the unit comes right after the number.

Answered cases to consult:
{"compound": "CC1=C2C(=O)N(CCc3ccc4ccccc4c3)C(=O)C2C2(CC3CCC2C3)c2sc(Br)cc21 (stereo not drawn)", "measured metric": "T1/2 (fatigue life)", "reported measurement": "13 h"}
{"compound": "COC(=O)C(C)N1C(=O)C2=C(c3ccccc3)c3ccoc3C3(C4CC5CC3CC(Cl)(C5)C4)C2C1=O (stereo not drawn)", "measured metric": "T1/2 (fatigue life)", "reported measurement": "31 h"}
{"compound": "CCC(C(=O)OCCc1ccc2ccccc2c1)N1C(=O)C2=C(C)c3ccsc3C3(C4CC5CC(C4)CC3C5)C2C1=O (stereo not drawn)", "measured metric": "T1/2 (fatigue life)", "reported measurement": "24 h"}
{"compound": "CCCCC1=C2C(=O)N(CC(C)(C)CCOC(=O)CBr)C(=O)C2C2(CC3CCC2C3(C)C)c2sc3c(c21)CCCC3 (stereo not drawn)", "measured metric": "T1/2 (fatigue life)", "reported measurement": "36 h"}
{"compound": "CCC1=C2C(=O)N(CC(=O)CCC(=O)CCl)C(=O)C2C2(c3c1sc1ccccc31)C1(F)C(F)(F)C3(F)C(F)(F)C(F)(C1(F)F)C(F)(F)C2(F)C3(F)F (stereo not drawn)", "measured metric": "T1/2 (fatigue life)", "reported measurement": "41 h"}

Below are 4 compounds. Give each one its T1/2 (fatigue life).
1. CC1=C2C(=O)N(c3ccccc3)C(=O)C2C2(CC3CCC2C3)c2sc(Br)cc21 (stereo not drawn)
2. CCn1c2c(c3ccccc31)C(C)=C1C(=O)OC(=O)C1C21C2CCC(C2)C1(C)C (stereo not drawn)
3. CC1=C2C(=O)N(CCCCC(=O)OCCc3cccc4ccccc34)C(=O)C2C2(c3sccc31)C1CC3CC(C1)CC2C3 (stereo not drawn)
4. CC1=C2C(=O)N(c3ccc(C)cc3)C(=O)C2C2(CC3CCC2C3)c2sc3ccccc3c21 (stereo not drawn)

*A*
1. 8 h
2. 12 h
3. 16 h
4. 11 h

Recorded values, source patent US4960678A.
